# measured.on: DGKα (Homo sapiens)
# Sequence (P23743 with tags, fused parts or gaps): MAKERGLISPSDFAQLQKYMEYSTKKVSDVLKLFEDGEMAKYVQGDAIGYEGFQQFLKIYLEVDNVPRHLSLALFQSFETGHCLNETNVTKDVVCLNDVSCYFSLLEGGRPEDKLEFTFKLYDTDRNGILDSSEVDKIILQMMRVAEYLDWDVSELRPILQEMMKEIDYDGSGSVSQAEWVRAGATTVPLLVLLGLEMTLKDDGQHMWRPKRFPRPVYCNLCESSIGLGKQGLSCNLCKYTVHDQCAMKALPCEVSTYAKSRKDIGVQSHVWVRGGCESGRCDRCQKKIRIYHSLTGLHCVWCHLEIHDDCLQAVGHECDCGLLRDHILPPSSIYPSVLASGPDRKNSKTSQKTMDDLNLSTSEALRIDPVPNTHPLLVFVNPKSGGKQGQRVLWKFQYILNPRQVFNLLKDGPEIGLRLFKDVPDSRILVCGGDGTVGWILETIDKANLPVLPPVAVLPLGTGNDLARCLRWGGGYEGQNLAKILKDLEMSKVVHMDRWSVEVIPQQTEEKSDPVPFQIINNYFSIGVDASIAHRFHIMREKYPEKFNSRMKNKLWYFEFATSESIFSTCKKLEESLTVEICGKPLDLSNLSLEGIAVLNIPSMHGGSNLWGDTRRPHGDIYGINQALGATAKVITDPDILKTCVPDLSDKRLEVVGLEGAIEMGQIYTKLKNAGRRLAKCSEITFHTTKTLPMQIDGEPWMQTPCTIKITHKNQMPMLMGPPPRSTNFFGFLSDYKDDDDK
pIC50: −log10 of the molar value.
value.kind: pIC50

Cn1c(=O)c(C(N)=O)c(N2CCC(OCc3ccccc3F)CC2)c2ccccc21 :: 7.85
Cc1ccccc1COC1CCN(c2c(C(N)=O)c(=O)n(C)c3ccccc23)CC1 :: 7.52
Cc1ccc2c(N3CCC(Oc4ccccc4)CC3)c(C#N)c(=O)n(C)c2c1 :: 8.24
Cn1c(=O)c(C(N)=O)c(N2CCC(Oc3ccc(OC(F)(F)F)cc3)CC2)c2cccc(Cl)c21 :: 7.43
Cc1ccc2c(c1)c(N1CCC(Oc3ccccc3Cl)CC1)c(C(N)=O)c(=O)n2C :: 7.23
Cn1c(=O)c(C#N)c(N2CCC(COc3cccc(Cl)c3)CC2)c2ccccc21 :: 7.47
Cn1c(=O)c(C#N)c(N2CCC(Cc3nc4ccccc4s3)CC2)c2ccccc21 :: 7.41
Cn1c(=O)c(C#N)c(N2CCC(Oc3ccc(S(C)(=O)=O)cc3)CC2)c2ccccc21 :: 6.47
